Data provenance is PubChem BioAssay (EPA / NIEHS).

Assay: Tanguay_ZF_120hpf_ActivityScore_legacy: (Legacy) Oregon State University Tanguay Lab 120 Hour Post-fertilization zebrafish Assay Score for Activity (AID 2283742);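 as to AC50: dechorionated Tropical 5D wild-type zebrafish embryos held singly per well; static exposure from 6 hpf until 120 hpf at 28 °C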
Calls of active or inactive are those of the source. The calls were made as follows: active = hit-call score of the fitted dose curve at least 0.9, where 1 is the maximum; inconclusive = response in the unintended direction; inactive = score below 0.9.

{"columns": ["molecule", "AC50"],
 "data": [
  ["COc1cnc(OC)n2nc(NS(=O)(=O)c3c(OCC(F)F)cccc3C(F)(F)F)nc12", "inactive"],
  ["CCOP(=S)(OCC)SCn1c(=O)oc2cc(Cl)ccc21", "inactive"],
  ["CN(C)C(=S)SSC(=S)N(C)C", "9.8 µM (active)"],
  ["COP(=S)(OC)Oc1nc(Cl)c(Cl)cc1Cl", "inactive"],
  ["COC(=O)C=C(C)OP(=O)(OC)OC", "inactive"],
  ["CCOC(=O)CC(SP(=S)(OC)OC)C(=O)OCC (configuration not stated)", "29.2 µM (active)"],
  ["CCNc1nc(Cl)nc(NCC)n1", "inactive"]
]}
